# Test system: Pseudomonas aeruginosa K799
# Assay type: cell-based
# condition.info: K799, 24 h
Where no end group is shown, it is not given here.
metric.name: MIC P. aeruginosa (µg/mL)
Give bare numbers, in µg/mL.

1. FFKKFPFFPFRRK [CP-24]; 32

We now examine a further sequence.
Fill in the blank: the reported MIC P. aeruginosa of ILKKWPWWPWRRK [CP-11] is ____.
16

###

# Tested on: Staphylococcus aureus RN4220
# Assay type: cell-based
# condition.info: RN4220, 24 h
# Protocol: Any of the art-known methods for measuring antimicrobial activity of peptides can be used in characterizing the peptides of the invention. […] The concentration of peptide was measured by assaying for free amino groups using a dinitrophenylation assay, with polymyxin B serving as a standard. […] After 24 hours of incubation at 37° C., the assay was read. […] The number of cells in the culture inoculum was calculated from the plate count after incubating the plate for 24 hours at 37° C. […]
Where a SMILES comes first, the peptide text is derived from it. [ ]: non-standard residue; d: D form.
Answer each item with its documented MIC S. aureus.

Below are worked cases with known answers.
1. CC[C@@H](C)[C@@H](N)C(=O)N[C@@H](CC(C)C)C(=O)N[C@@H](CCCCN)C(=O)N[C@@H](CCCCN)C(=O)N[C@@H](Cc1c[nH]c2ccccc12)C(=O)N1CCC[C@H]1C(=O)N[C@@H](Cc1c[nH]c2ccccc12)C(=O)N[C@@H](Cc1c[nH]c2ccccc12)C(=O)N1CCC[C@H]1C(=O)N[C@@H](Cc1c[nH]c2ccccc12)C(=O)N[C@@H](CCCNC(=N)N)C(=O)N[C@@H](CCCNC(=N)N)C(=O)N[C@@H](CCCCN)C(=O)O [CP-11D] (H-[dI]LKKWPWWPWRRK-OH); 4 µg/mL
2. CC[C@H](C)[C@H](N)C(=O)N[C@@H](CC(C)C)C(=O)N[C@@H](CCCCN)C(=O)N[C@@H](CCCCN)C(=O)N[C@@H](Cc1c[nH]c2ccccc12)C(=O)N1CCC[C@H]1C(=O)N[C@@H](Cc1c[nH]c2ccccc12)C(=O)N[C@@H](Cc1c[nH]c2ccccc12)C(=O)N1CCC[C@H]1C(=O)N[C@@H](Cc1c[nH]c2ccccc12)C(=O)N[C@@H](CCCNC(=N)N)C(=O)N[C@@H](CCCNC(=N)N)C(=O)N[C@@H](CCCCN)C(=O)OC [CP-11C] (H-ILKKWPWWPWRRK-OMe); 8 µg/mL

Fill in the blank: the reported MIC S. aureus of CC[C@@H](C)[C@@H](N)C(=O)N[C@@H](CC(C)C)C(=O)N1CCC[C@H]1C(=O)N[C@@H](Cc1c[nH]c2ccccc12)C(=O)N[C@@H](CCCCN)C(=O)N[C@@H](Cc1c[nH]c2ccccc12)C(=O)N1CCC[C@H]1C(=O)N[C@@H](Cc1c[nH]c2ccccc12)C(=O)N[C@@H](Cc1c[nH]c2ccccc12)C(=O)N1CCC[C@H]1C(=O)N[C@@H](Cc1c[nH]c2ccccc12)C(=O)N[C@@H](CCCNC(=N)N)C(=O)N[C@@H](CCCNC(=N)N)C(=O)O [Indolicidin-D] is ____.
4 µg/mL

###

# Test system: Staphylococcus aureus RN4220
# Format: cell-based
# condition.info: RN4220, 24 h
Where a SMILES comes first, the peptide text is derived from it. [ ]: non-standard residue; d: D form.
Answer each item with its documented MIC S. aureus.

Dear colleague, could you send me MIC S. aureus for each of the items below? Thanks.
1. CC[C@@H](C)[C@@H](N)C(=O)N[C@@H](CC(C)C)C(=O)N1CCC[C@H]1C(=O)N[C@@H](Cc1c[nH]c2ccccc12)C(=O)N[C@@H](CCCCN)C(=O)N[C@@H](Cc1c[nH]c2ccccc12)C(=O)N1CCC[C@H]1C(=O)N[C@@H](Cc1c[nH]c2ccccc12)C(=O)N[C@@H](Cc1c[nH]c2ccccc12)C(=O)N1CCC[C@H]1C(=O)N[C@@H](Cc1c[nH]c2ccccc12)C(=O)N[C@@H](CCCNC(=N)N)C(=O)N[C@@H](CCCNC(=N)N)C(=O)OC
2. CC[C@@H](C)[C@@H](N)C(=O)N[C@@H](CC(C)C)C(=O)N[C@@H](CCCCN)C(=O)N[C@@H](CCCCN)C(=O)N[C@@H](Cc1c[nH]c2ccccc12)C(=O)N1CCC[C@H]1C(=O)N[C@@H](Cc1c[nH]c2ccccc12)C(=O)N[C@@H](Cc1c[nH]c2ccccc12)C(=O)N1CCC[C@H]1C(=O)N[C@@H](Cc1c[nH]c2ccccc12)C(=O)N[C@@H](CCCNC(=N)N)C(=O)N[C@@H](CCCNC(=N)N)C(=O)N[C@@H](CCCCN)C(=O)OC [CP-11DC] (H-[dI]LKKWPWWPWRRK-OMe; N-terminus assumed)

1. 8 µg/mL
2. 4 µg/mL
